- EXPERIMENT: Cell-based activity under Prompt Conditions: Cell-based activity under Prompt Conditions. Rat or human NHE3-mediated Na+-dependent H+ antiport was measured using a modification of the pH sensitive dye method originally reported by Paradiso (PNAS USA. 81:7436-7440, 1984). Opossum kidney (OK) cells were obtained from the ATCC and propagated per their instructions. The rat NHE3 gene (GenBank M85300) or the human NHE3 gene (GenBank NM_004174.1) was introduced into OK cells via electroporation, and cells were seeded into 96 well plates and grown overnight. Medium was aspirated from the wells, cells were washed twice with NaCl-HEPES buffer (100 mM NaCl, 50 mM HEPES, 10 mM glucose, 5 mM KCl, 2 mM CaCl2, 1 mM MgCl2, pH 7.4), then incubated for 30 min at room temperature with NH4Cl-HEPES buffer (20 mM NH4Cl, 80 mM NaCl, 50 mM HEPES, 5 mM KCl, 2 mM CaCl2, 1 mM MgCl2, pH 7.4) containing 5 μM bis(acetoxymethyl) 3,3′-(3′,6′-bis(acetoxymethoxy)-5-((acetoxymethoxy)carbonyl)-3-oxo-3H-spiro[isobenzofuran-1,9′-xanthene]-2′,7′-diyl)dipropanoate (BCECF-AM).Cells were washed twice with Ammonium free, Na+-free HEPES (100 mM choline, 50 mM HEPES, 10 mM glucose, 5 mM KCl, 2 mM CaCl2, 1 mM MgCl2, pH 7.4) and incubated in the same buffer for 10 minutes at room temperature to lower intracellular pH. […] Initial rates were plotted as the average 2 or more replicates, and pIC50 values were estimated using GraphPad Prism.
TEST_READOUT: IC50 (nM)
# output: bare number, implied unit nM

Qu. Answer with the recorded IC50 of C/C(=C\c1cc(F)c(Oc2ccc(S(=O)(=O)NCCOCCOCCOCCNC(=O)N(C)CCCCN(C)C(=O)NCCOCCOCCOCCNS(=O)(=O)c3ccc(Oc4c(F)cc(/C=C(\C)C(=O)N=C(N)N)cc4F)cc3)cc2)c(F)c1)C(=O)N=C(N)N only.
Ans. 15.8

Qu. Answer with the recorded IC50 of CN1Cc2c(Cl)cc(Cl)cc2[C@H](c2cccc(S(=O)(=O)NCCOCCOCCNC(=O)NCCN(CCNC(=O)NCCOCCOCCNS(=O)(=O)c3cccc([C@@H]4CN(C)Cc5c(Cl)cc(Cl)cc54)c3)C(=O)NCCOCCOCCN)c2)C1 only.
Ans. 3.98

Qu. Answer with the recorded IC50 of COCCOCCOCCC(=O)NCCOCCOCCOCCN1CCN(c2cccc(-c3nc(NC(=N)N)nc4ccc(Cl)cc34)c2)CC1 only.
Ans. 135

Qu. Answer with the recorded IC50 of CN1Cc2c(Cl)cc(Cl)cc2[C@H](c2cccc(S(=O)(=O)NCCOCCOCCNC(=O)CCC(CCC(=O)NCCOCCOCCNS(=O)(=O)c3cccc([C@@H]4CN(C)Cc5c(Cl)cc(Cl)cc54)c3)(CCC(=O)NCCOCCOCCNS(=O)(=O)c3cccc([C@@H]4CN(C)Cc5c(Cl)cc(Cl)cc54)c3)NC(=O)N(C)C[C@H](O)[C@@H](O)[C@H](O)[C@H](O)CO)c2)C1 only.
Ans. 7.94

Qu. Answer with the recorded IC50 of CN1Cc2c(Cl)cc(Cl)cc2[C@H](c2cccc(S(=O)(=O)NCCOCCOCCOCCNC(=O)CN3CCN(CC(=O)NCCOCCOCCOCCNS(=O)(=O)c4cccc([C@@H]5CN(C)Cc6c(Cl)cc(Cl)cc65)c4)CCN(CC(=O)NCCOCCOCCOCCNS(=O)(=O)c4cccc([C@@H]5CN(C)Cc6c(Cl)cc(Cl)cc65)c4)CCN(CC(=O)NCCOCCOCCOCCNS(=O)(=O)c4cccc([C@@H]5CN(C)Cc6c(Cl)cc(Cl)cc65)c4)CC3)c2)C1 only.
Ans. 501
